Target: human NaV1.8 (Homo sapiens, UniProt Q9Y5Y9)
Construct: expressed in transfected cells; host or cells: HEK
Sequence (Q9Y5Y9 whole entry): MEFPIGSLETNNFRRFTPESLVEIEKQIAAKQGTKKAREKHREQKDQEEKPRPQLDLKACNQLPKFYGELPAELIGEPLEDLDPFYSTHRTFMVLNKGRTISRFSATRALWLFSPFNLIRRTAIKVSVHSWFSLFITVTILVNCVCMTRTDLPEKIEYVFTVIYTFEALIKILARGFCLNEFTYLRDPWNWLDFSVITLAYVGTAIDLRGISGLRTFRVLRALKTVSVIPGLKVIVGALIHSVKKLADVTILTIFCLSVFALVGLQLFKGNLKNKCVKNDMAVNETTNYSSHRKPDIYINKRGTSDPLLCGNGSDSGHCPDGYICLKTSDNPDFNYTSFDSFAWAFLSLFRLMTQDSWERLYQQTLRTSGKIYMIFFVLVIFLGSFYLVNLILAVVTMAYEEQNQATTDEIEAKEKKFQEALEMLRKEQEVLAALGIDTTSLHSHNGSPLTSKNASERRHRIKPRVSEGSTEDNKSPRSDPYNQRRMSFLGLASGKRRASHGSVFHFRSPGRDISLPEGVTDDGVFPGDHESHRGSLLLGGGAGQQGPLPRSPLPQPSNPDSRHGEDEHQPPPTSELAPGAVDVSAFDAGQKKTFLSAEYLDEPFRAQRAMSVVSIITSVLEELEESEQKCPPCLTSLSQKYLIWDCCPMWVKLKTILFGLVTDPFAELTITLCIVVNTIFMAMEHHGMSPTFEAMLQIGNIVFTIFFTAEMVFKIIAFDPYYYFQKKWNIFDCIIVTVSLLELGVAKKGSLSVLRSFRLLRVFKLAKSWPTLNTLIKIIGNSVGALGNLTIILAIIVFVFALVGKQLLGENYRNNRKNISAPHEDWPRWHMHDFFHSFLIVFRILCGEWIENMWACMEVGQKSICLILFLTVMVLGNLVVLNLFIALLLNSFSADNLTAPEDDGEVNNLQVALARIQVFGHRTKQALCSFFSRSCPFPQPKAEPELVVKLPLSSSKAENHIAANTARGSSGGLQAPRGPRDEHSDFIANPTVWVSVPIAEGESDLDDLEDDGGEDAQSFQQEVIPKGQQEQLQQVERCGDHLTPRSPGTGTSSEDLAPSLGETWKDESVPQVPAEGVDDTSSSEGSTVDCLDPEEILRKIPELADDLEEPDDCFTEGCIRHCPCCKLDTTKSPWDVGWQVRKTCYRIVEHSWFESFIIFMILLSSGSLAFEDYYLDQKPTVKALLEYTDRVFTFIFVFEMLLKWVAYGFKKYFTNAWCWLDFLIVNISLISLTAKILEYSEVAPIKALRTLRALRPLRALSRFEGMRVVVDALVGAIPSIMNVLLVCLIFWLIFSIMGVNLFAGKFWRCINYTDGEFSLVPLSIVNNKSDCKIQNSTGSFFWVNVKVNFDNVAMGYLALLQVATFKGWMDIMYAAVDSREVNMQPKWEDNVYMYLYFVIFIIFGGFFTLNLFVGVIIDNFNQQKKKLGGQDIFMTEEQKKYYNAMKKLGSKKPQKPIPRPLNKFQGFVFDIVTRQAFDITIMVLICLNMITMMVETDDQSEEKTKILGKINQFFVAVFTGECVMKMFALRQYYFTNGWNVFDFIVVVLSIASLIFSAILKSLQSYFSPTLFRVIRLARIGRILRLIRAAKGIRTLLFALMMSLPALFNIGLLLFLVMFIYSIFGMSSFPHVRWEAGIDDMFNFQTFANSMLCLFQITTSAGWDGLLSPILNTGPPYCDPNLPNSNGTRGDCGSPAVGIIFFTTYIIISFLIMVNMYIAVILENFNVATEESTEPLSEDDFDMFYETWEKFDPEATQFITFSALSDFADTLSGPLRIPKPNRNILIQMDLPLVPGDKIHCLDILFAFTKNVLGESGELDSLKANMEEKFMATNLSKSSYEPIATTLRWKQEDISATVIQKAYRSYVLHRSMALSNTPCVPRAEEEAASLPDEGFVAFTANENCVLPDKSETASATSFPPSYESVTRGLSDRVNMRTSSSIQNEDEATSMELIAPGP
Sequence (Q9NY72 23-215 partner): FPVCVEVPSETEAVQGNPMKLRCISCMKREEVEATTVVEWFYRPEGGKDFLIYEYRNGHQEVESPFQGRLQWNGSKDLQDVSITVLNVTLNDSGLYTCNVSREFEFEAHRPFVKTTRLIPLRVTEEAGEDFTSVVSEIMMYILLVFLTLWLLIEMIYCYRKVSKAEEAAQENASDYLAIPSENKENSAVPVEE
Experiment: Electrophysiology: voltage-clamp recordings (whole-cell automated patch clamp, Qube384)
Format: cell-based
Details: HEK-NaV1.8 with b3 recombinant cell line, ambient room temperature, read-out: Potency category (human NaV1.8 IC50)
pIC50: −log10 of the molar value.
Please respond with reported pIC50 for every item in the list.

Q. Determine from records and report pIC50 for NC(=O)c1cccc(NC(=O)c2c3ccc(F)cc3nn2CC2CCC(F)(F)CC2)c1
A. 6.00 to 7.00

Q. Complete the entry with pIC50 for CS(=O)(=O)c1cccc(NC(=O)c2c3ccc(F)cc3nn2CC2CCC3(CC2)CC3)c1
A. 5.00 to 6.00

Q. Output measured pIC50 for this item: Cc1ccc(Cl)c2c(C(=O)Nc3ccnc(C(N)=O)c3)n(CC3CCC(F)(F)C3)nc12 (single isomer, unassigned) [SC-82a]
A. ≥ 7.00

Q. # return recorded pIC50 for entry NC(=O)c1cc(NC(=O)c2c3ccccc3nn2CC2CCOCC2)ccc1F
A. 5.00 to 6.00

Q. Specify pIC50 for Cc1cccc2c(C(=O)Nc3ccnc(S(N)(=O)=O)c3)n(C[C@H]3CCCCO3)nc12 (single isomer, unassigned) [SC-88b] and stop.
A. ≥ 7.00

Q. Quick one: give measured pIC50 for Cc1ccc2nn(CC3CCCCC3)c(C(=O)Nc3cc[nH]c(=O)c3)c2c1
A. 5.00 to 6.00

Q. Consider the molecule C[S+]([O-])c1cccc(NC(=O)c2c3ccc(F)cc3nn2CC2CCCCC2)c1 (centres unmarked) . State its measured pIC50.
A. 6.00 to 7.00

Q. Note pIC50 for the molecule shown: NS(=O)(=O)c1cccc(NC(=O)c2c3ccccc3nn2CC2CCOCC2)c1
A. 6.00 to 7.00

====

Biological target: human NaV1.8 (Homo sapiens, UniProt Q9Y5Y9)
Assay: Electrophysiology: voltage-clamp recordings (whole-cell automated patch clamp, Qube384)
Settings: HEK-NaV1.8 with b3 recombinant cell line, ambient room temperature, read-out: Potency category (human NaV1.8 IC50)
Experimental: The following NaV1.8 recombinant cell line was used for recordings: HEK-NaV1.8 (NM_006514.1) with b3 (NM_018400.3). Sodium currents were measured using the patch clamp technique in the whole-cell configuration using the Qube384 (Sophion A/S, Copenhagen, Denmark) automated voltage clamp platform. […] The adjusted inhibition was calculated as follows: % Inhibitioncorrected = 100 × (NormCPD −NormVEH)/(100−NormVEH) [formula] […]
pIC50: −log10 of the molar value.
property name: pIC50

Q. Note pIC50 for the compound shown: O=C(Nc1ccnc(O)c1)c1c2cc(F)ccc2nn1CC1CCCCC1
A. 6.00 to 7.00

Q. Give the value of pIC50 reported for the following: NS(=O)(=O)c1cc(NC(=O)c2c3cccc(C(F)F)c3nn2C[C@H]2CCCCO2)ccn1 [SC-89b]
A. ≥ 7.00

Q. Name the recorded pIC50 of the item NS(=O)(=O)c1cccc(NC(=O)c2c3ccc(F)cc3nn2CC2CCCCC2)c1 in your answer.
A. ≥ 7.00

Q. Read the entry O=C(Nc1cc[nH]c(=O)c1)c1c2ccccc2nn1CC1CCC1 and write its reported pIC50.
A. 5.00 to 6.00

Q. Fill in reported pIC50 for this entry: O=C(Nc1ccnc(O)c1)c1c2ccccc2nn1CC1CCCCC1
A. 6.00 to 7.00

Q. Check the records and state pIC50 for CS(=O)(=O)c1cc(NC(=O)c2c3ccccc3nn2CC2CCCCC2)ccc1F
A. ≥ 7.00

Q. Please report pIC50 for the following compound: CS(=O)(=O)c1cccc(NC(=O)c2c3c(F)cccc3nn2CC2CCCCC2)c1
A. ≥ 7.00

Q. Please give measured pIC50 of the following entry: CC(C)(O)c1cccc(NC(=O)c2c3ccccc3nn2CC2CCCCC2)c1
A. 5.00 to 6.00

Q. For the compound CS(=O)(=O)c1cccc(NC(=O)c2c3ccc(F)cc3nn2CC2CCCCC2)c1 , give its reported pIC50.
A. ≥ 7.00
